Consider the following molecules; for each one, report its Post-emerge phytotoxicity rating RICE (crop damage).
- System: upland rice (Oryza sp., var. Tebonnet, RICE)
- Protocol Details: Post-emerge test, crop safety
- Assay type: in vivo
- Condition: Rate 63 g ai/ha; rating scale 0-100 (0 no damage, 100 complete death); 14 days after application
- Method: A standard greenhouse herbicide activity screening system was used to evaluate the herbicidal efficacy and crop safety of these test compounds. […] At 14 days after application of the test materials, phytotoxicity ratings were recorded. […]
Answers are plain numbers.

Please state Post-emerge phytotoxicity rating RICE (crop damage) for every molecule in the list that follows.
1. COc1c(Cl)cc(F)c(-n2c(=O)cc(C(F)(F)F)n(C)c2=O)c1CC(Cl)C(=O)OCC(C)C (single isomer, unassigned) [14-15]
2. COc1c(Cl)cc(F)c(-n2c(=O)cc(C(F)(F)F)n(C)c2=O)c1CC(Cl)C(=O)OCC(F)(F)C(F)F (centres unmarked) [14-22]

[0, 0]

I have 4 molecules here; please give me Post-emerge phytotoxicity rating RICE (crop damage) for each one.
1. CCCCCOC(=O)C(Cl)Cc1c(OC)c(Cl)cc(F)c1-n1c(=O)cc(C(F)(F)F)n(C)c1=O (single isomer, unassigned) [14-10]
2. COc1c(Cl)cc(F)c(-n2c(=O)cc(C(F)(F)F)n(C)c2=O)c1CC(Cl)C(=O)OCCC#N (centres unmarked) [14-29]
3. CCCCOC(=O)C(Cl)Cc1c(OC)c(Cl)cc(F)c1-n1c(=O)cc(C(F)(F)F)n(C)c1=O (single isomer, unassigned) [14-9]
4. C=COC(=O)C(C)(Cl)Cc1c(OC)c(Cl)cc(F)c1-n1c(=O)cc(C(F)(F)F)n(C)c1=O (centres unmarked) [14-42]

1. 0
2. 0
3. 5
4. 95

Give me Post-emerge phytotoxicity rating RICE (crop damage) for each of these molecules, listed below.
1. CCOC(=O)C(Cl)(C#N)Cc1c(OC)c(Cl)cc(F)c1-n1c(=O)cc(C(F)(F)F)n(C)c1=O (centres unmarked) [14-51]
2. COc1c(Cl)cc(F)c(-n2c(=O)cc(C(F)(F)F)n(C)c2=O)c1CC(Cl)C(=O)OCC(C)C (single isomer, unassigned) [14-14]
3. CCCCOC(=O)C(Cl)Cc1c(OC)c(Cl)cc(F)c1-n1c(=O)cc(C(F)(F)F)n(C)c1=O (single isomer, unassigned) [14-8]
4. COc1c(Cl)cc(F)c(-n2c(=O)cc(C(F)(F)F)n(C)c2=O)c1CC(Cl)C(=O)OCC(F)(F)F (centres unmarked) [14-21]
5. CCOC(=O)C(Cl)Cc1c(C)c(Cl)cc(F)c1-n1c(=O)cc(C(F)(F)F)n(C)c1=O (centres unmarked) [14-54]
6. COc1c(Cl)cc(F)c(-n2c(=O)cc(C(F)(F)F)n(C)c2=O)c1CC(Cl)C(=O)OCC(Br)CBr (single isomer, unassigned) [14-30]
7. COc1c(Cl)cc(F)c(-n2c(=O)cc(C(F)(F)F)n(C)c2=O)c1CC(C)(Cl)C(=O)OCC1CCCO1 (centres unmarked) [14-49]

1. 0
2. 0
3. 5
4. 10
5. 10
6. 0
7. 50

The molecule CCCCCCOC(=O)C(C)(Cl)Cc1c(OC)c(Cl)cc(F)c1-n1c(=O)cc(C(F)(F)F)n(C)c1=O (centres unmarked) [14-38] , when measured on upland rice (Oryza sp., var. Tebonnet, RICE), yielded Post-emerge phytotoxicity rating RICE (crop damage) of 0
